Hey, just so you know, these numbers are from the kinase profiling compilation of Christmann-Franck et al. (2016).

target: TYK2 JH1 catalytic (human); test: radiometric filter-binding kinase assay, Kinase HotSpot; conditions: compound 0.5 µM; ATP 10 µM
property: residual activity (%)
One number for each entry, in %.

// solved cases for residual activity follow
compound: CCN1/C(=C/C(C)=O)Sc2ccc(OC)cc21
reading: 113
--
compound: O=C(NC(NC(=S)Nc1ccc(F)c([N+](=O)[O-])c1)C(Cl)(Cl)Cl)C(c1ccccc1)c1ccccc1 (stereo not given)
reading: 94
--
compound: O=C1Nc2cc(Br)ccc2/C1=C1/Nc2ccccc2/C1=N\O
reading: 25.6
--
compound: NC(=O)c1ccc(N(C(N)=O)c2c(F)cccc2F)nc1-c1ccc(F)cc1F
reading: 93.5
--
compound: O=C1Nc2ccccc2/C1=C\c1c(Cl)[nH]c2ccccc12
reading: 110
--
compound: O=C1Cc2c([nH]c3ccc([N+](=O)[O-])cc23)-c2ccccc2N1
reading: 56.5
--
compound: COc1ccc(-c2cnc3c(-c4ccsc4)cnn3c2)cc1
reading: 86.1
--
compound: Clc1ccc(Nc2nnc(Cc3ccncc3)c3ccccc23)cc1
reading: 89.4

Hey, can you go through the list below and give me residual activity for every item?
1. Cc1ccc(NC(=O)c2ccc(CN3CCN(C)CC3)cc2)cc1Nc1nc(-c2cccnc2)cs1
2. CCCNC(=O)Nc1ccc(Oc2ncnc3cc(OC)c(OC)cc23)cc1Cl

1: 101; 2: 95.2
